- ASSAYED_SYSTEM: cynomolgus IL-6R used in Biacore (cynomolgus monkey)
- TEST_DETAILS: Biacore, periplasmic extract
Collected koff values appear next to each entry.
Enter your answer as a number in s⁻¹; do not include the unit.

Asked: Need koff of IL6RPMP107B4 (VHH, family 17; periplasmic extract; also called PMP107B04) VHH: EVQLVESGGGLVQAGGSLRLSCVASGLRLNMHRMGWFRQAPGKEREFVARIFTDDGDSYYADSVQGRFTISGDNAKNTVYLQMNSLKPEDTGVYFCAAGYMSGAESPIGYDNWGQGTQVTVSS , thanks.
Given back: 0.01

Asked: Need koff of IL6RPMP107A9 (VHH, family 21; also called IL6R107A9) VHH: EVQLVESGGGLVQAGGSLRLSCAASGGIFSDMFMGWFRQAPGKSRESVARISPSGNTFYQDSVRGRFTISTDNAKNTVYLQMNNLKPEDTAVYYCAANVGVTGSYEYWGQGTQVTVSS , thanks.
Given back: 0.01

Asked: Need koff of IL6RPMP101A5 (VHH, family 5; periplasmic extract) VHH: EVQLVESGGGLVQAGGSLRLSCTASGRTFSDYDMGWFRQAPGKERECVAIIDTNGDNTLIVGSVKGRFAISSDNAKNTVYLQMNSLLPEDTAVYTCAAGVWSSLRHTAANYWGQGTQVTVSS , thanks.
Given back: 0.00045

Asked: Need koff of IL6RPMP108D1 (VHH) VHH: EVQLVESGGGLVQAGGSLRLSCTASGRTFSDYDMGWFRQAPGKERECVAVIDTNGDNTLTVGSVKGRFAISRDNAKNTVYLQMNSLLPEDTAVYTCAAGAWSSLRSTAANYWGQGTKVTVSS , thanks.
Given back: 0.00079

Measured values drawn from patent US20120171209A1 for this set.
